Molecular target: hNPY2R (Homo sapiens)
Construct: expressed in transfected cells; host or cells: HEK-293 cells carrying a CRE-luciferase reporter gene
Sequence (P49146 1-381): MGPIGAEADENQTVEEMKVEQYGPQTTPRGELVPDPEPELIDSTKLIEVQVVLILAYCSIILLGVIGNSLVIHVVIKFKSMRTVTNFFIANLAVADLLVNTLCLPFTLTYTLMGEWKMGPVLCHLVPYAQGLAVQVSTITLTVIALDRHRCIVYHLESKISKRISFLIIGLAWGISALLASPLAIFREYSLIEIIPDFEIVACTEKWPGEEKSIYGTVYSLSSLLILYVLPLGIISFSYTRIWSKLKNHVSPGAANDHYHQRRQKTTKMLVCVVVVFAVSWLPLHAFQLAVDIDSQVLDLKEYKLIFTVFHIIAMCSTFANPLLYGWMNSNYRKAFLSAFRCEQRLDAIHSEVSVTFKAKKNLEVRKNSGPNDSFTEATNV
Assay: hNPY2R CreLuc reporter gene assay in 0.5% and 100% plasma
Assay type: cell-based
Conditions: CreLuc reporter gene assay, 0.5% human plasma; read-out: hNPY2R 0.5% hP
Starred links: 1 amine or outer side, 2 acyl side, 3 side chain; linkers in the order of their positions; H or OH if unused. Non-standard residues stand in square brackets, D forms with d. Groups on a side chain read outwards from the residue. No end group written: not given here. *: point of attachment. C20 diacid = O=C(O)CCCCCCCCCCCCCCCCCCC(=O)*; C18 diacid = O=C(O)CCCCCCCCCCCCCCCCC(=O)*; γGlu = O=C(O)[C@H](CCC(=O)[*:2])N[*:1]; εLys = N[C@@H](CCCCN[*:1])C(=O)[*:2]; AEEA = NCCOCCOCC(=O)O; Aib = CC(C)(N)C(=O)O
Measure: pEC50
pEC50 is defined as minus the log10 of a concentration measured in mol/L.

The substance H-Y[Aib]EGTFTSDYSI[Aib]LEKQAQ[Aib]AFVEWLIK([εLys-γGlu-γGlu-γGlu-γGlu-γGlu-γGlu-C20 diacid])GGPSSGASLR[Aib]YYNWLTRQRY-NH2 [Compound 182] showed pEC50 equal to 7.15

The substance Y[Aib]EGTFTSDYSI[Aib]LEKQAQ[Aib]AFVQWLIK([AEEA-AEEA-γGlu-γGlu-γGlu-γGlu-γGlu-C18 diacid])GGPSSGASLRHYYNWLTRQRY-NH2 [Compound 167] showed pEC50 equal to 7.98

---

Target: hGIPR (Homo sapiens, UniProt P48546)
Construct: expressed in transfected cells; host or cells: CHO cells carrying a CRE-luciferase reporter gene
Sequence (P48546 22-466): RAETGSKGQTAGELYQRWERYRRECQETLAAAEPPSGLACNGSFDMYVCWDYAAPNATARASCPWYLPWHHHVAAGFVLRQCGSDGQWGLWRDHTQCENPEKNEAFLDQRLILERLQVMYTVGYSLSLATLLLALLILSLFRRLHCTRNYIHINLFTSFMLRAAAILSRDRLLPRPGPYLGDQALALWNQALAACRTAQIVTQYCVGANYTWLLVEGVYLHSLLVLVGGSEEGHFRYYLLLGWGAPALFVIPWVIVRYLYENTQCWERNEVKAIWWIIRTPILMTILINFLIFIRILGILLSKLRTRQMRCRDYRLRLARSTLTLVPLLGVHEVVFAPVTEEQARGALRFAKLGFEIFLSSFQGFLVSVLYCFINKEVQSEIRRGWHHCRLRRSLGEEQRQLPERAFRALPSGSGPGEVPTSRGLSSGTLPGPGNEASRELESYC
Assay: hGIPR CreLuc reporter gene assay in 0.5% and 100% plasma
Assay type: cell-based
Conditions: CreLuc reporter gene assay, 0.5% human plasma; read-out: hGIPR 0.5% hP
Starred links: 1 amine or outer side, 2 acyl side, 3 side chain; linkers in the order of their positions; H or OH if unused. Positions of bridges follow the written chain, without caps; N, C: chain ends. Non-standard residues stand in square brackets, D forms with d. Groups on a side chain read outwards from the residue. Chains are numbered I, II in the order given. No end group written: not given here. *: point of attachment. C20 diacid = O=C(O)CCCCCCCCCCCCCCCCCCC(=O)*; C18 diacid = O=C(O)CCCCCCCCCCCCCCCCC(=O)*; γGlu = O=C(O)[C@H](CCC(=O)[*:2])N[*:1]; εLys = N[C@@H](CCCCN[*:1])C(=O)[*:2]; AEEA = NCCOCCOCC(=O)O; Aib = CC(C)(N)C(=O)O
Measure: EC50 (nM)
Could you give me the number in nM? Just the number is fine.

The substance H-Y[Aib]EGTFTSDYSI[Aib]LEKQAQ[Aib]AFVEWLIK([εLys-γGlu-γGlu-γGlu-γGlu-γGlu-γGlu-C20 diacid])GGPSSYESLRHYYNWLTRQRY-NH2 [Compound 50] showed EC50 equal to 0.12

The substance H-Y[Aib]EGTFTSDYSI[Aib]LEKQAQ[Aib]AFVQWLIK([γGlu-γGlu-γGlu-γGlu-γGlu-γGlu-C18 diacid])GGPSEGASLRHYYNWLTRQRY-NH2 [Compound 252] showed EC50 equal to 0.29

The substance H-Y[Aib]EGTFTSDYSI[Aib]LEKQAQ[Aib]AFVEWLIK([εLys-γGlu-γGlu-γGlu-γGlu-γGlu-γGlu-C20 diacid])GGPSEGVSLRHYYNWLTRQRY-NH2 [Compound 241] showed EC50 equal to 0.69

The substance I: H-Y[Aib]EGTFTSDYSI[Aib]LEKQAQ[Aib]AFVQWLIKGGPEEGASLRHYYNWLTRQRY-NH2 / II: {C18 diacid}-EEEEEE[εLys] (amide I:28-II:C) [Compound 196] showed EC50 equal to 0.25

The substance H-Y[Aib]EGTFTSDYSI[Aib]LEKQAQ[Aib]EFVEWLIK([AEEA-AEEA-γGlu-γGlu-γGlu-C18 diacid])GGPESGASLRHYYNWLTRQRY-NH2 [Compound 81] showed EC50 equal to 0.27

The substance H-Y[Aib]EGTFTSDYSI[Aib]LEKQAQ[Aib]AFVEWLIK([εLys-γGlu-γGlu-γGlu-γGlu-γGlu-γGlu-C20 diacid])GGPSSGASLR[Aib]YYNWLTRQRY-NH2 [Compound 182] showed EC50 equal to 0.21

The substance H-Y[Aib]EGTFTSDYSI[Aib]LEKQAQ[Aib]EFVEWLIK([εLys-γGlu-γGlu-γGlu-γGlu-γGlu-γGlu-C20 diacid])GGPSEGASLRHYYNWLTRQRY-NH2 [Compound 275] showed EC50 equal to 0.27

The substance H-Y[Aib]EGTFTSDYSI[Aib]LEKQAQ[Aib]AFVQWLIK([εLys-γGlu-γGlu-γGlu-γGlu-γGlu-C20 diacid])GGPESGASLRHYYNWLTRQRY-NH2 [Compound 61] showed EC50 equal to 0.36

The substance Y[Aib]EGTFTSDYSI[Aib]LEKQAQ[Aib]AFVQWLIK([γGlu-γGlu-γGlu-γGlu-γGlu-γGlu-C20 diacid])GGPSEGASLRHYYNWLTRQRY-NH2 [Compound 223] showed EC50 equal to 0.39

The substance H-Y[Aib]EGTFTSDYSI[Aib]LEKQAQ[Aib]AFVQWLIK([AEEA-AEEA-Glu-Glu-Glu-C18 diacid])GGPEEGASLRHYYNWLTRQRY-NH2 [Compound 188] showed EC50 equal to 0.12
